Measured IC50 values are reported for all entries that follow.
# Study Target: Delta-type opioid receptor (Homo sapiens, UniProt P41143)
# Sequence (P41143 whole entry): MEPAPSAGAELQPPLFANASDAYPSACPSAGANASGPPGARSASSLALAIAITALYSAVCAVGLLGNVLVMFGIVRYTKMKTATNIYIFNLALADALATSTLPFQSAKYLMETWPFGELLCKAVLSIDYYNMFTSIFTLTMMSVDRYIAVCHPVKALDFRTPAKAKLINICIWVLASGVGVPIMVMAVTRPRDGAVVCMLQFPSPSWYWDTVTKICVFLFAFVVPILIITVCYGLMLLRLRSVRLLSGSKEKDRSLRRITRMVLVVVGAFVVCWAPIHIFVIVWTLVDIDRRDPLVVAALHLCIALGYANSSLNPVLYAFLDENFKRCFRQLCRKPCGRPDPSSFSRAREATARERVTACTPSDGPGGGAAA
# Procedure Summary: biochemical
Provide only the numeric value, understood in µM.

Compound	IC50, µM
CCCCCC(=O)NCCCN1CCC[C@H]1CC(=O)O [PERIPENTONINE C]	30.9

As a next step, examine the compound that follows.
Can you share its IC50? I mean this compound: CCCCCC(=O)NCCCN1CCCC1CC(=O)c1c(C)cccc1O (configuration not stated) [PERIPENTADENINE]
11.4
